Assay: small-molecule binders of probe aInhba, primary screen, biochemical, small-molecule microarray, 635/667 nm fluorescence (AID 1148);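 note: score merges 667nm spot fluorescence with signal-to-noise for antibody binding to printed compounds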
Conditions: higher = more signal
Readout kind: composite z-score
Reply: number alone, nothing else.

Here is how some compounds turned out for composite z-score.
- Compound: "CC(C)C(=C=CC[C@H](O)c1cccc(OCCO)c1)C[C@H](O)COCc1ccccc1"
  composite z-score: 0.167
- Compound: "COC(=O)[C@@]1(Cc2ccc(OC)cc2)[C@H]2c3cc(C(=O)N4CCCC4)n(Cc4ccccn4)c3C[C@H]2CN1C(=O)c1ccccc1"
  composite z-score: 1.1
- Compound: "CC(C)C(=C=CC[C@H](O)c1ccccc1OCCO)C[C@H](O)c1ccccn1"
  composite z-score: -0.0205
- Compound: "O=C1C2C=CC(C(O)c3ccc(F)cc3)N(Nc3ccccc3)C2C(=O)N1c1ccccc1 (configuration not stated)"
  composite z-score: 0.212
- Compound: "COc1ccc(C(=O)Nc2cccc(CN3C(=O)[C@]4(O[C@H](CC(=O)N5CCC[C@H]5CO)[C@@H]([Si](C)(C)c5ccc(OC)cc5)[C@@H]4C)c4ccccc43)c2)cc1"
  composite z-score: -0.15

# compound CCCNC(=O)[C@@]1(c2ccc([N+](=O)[O-])cc2)CC(=O)N(CC23CC4CC(CC(C4)C2)C3)[C@@H]1c1ccc(CO)cc1 ; its composite z-score = -0.272

# compound [N-]=[N+]=NCc1ccccc1[C@H]1OC(c2ccc(OCCCO)cc2)=N[C@@]1(CCS(=O)(=O)c1ccccc1)C(=O)N1CCOCC1 ; its composite z-score = 0.556
